Assay: in vivo cassette mouse model: brain and plasma concentrations following oral dosing
Details: plasma, male CD-1 mice, 2.5 mg/kg per compound, read-out: (b) Plasma conc. at 3 hours
measurement-type: concentration at 3 h (nM)

INSERT INTO assay_data (compound, measurement) VALUES
  ('C[C@@H](Nc1ncc2cc(-c3ncnc4[nH]ncc34)ccc2n1)c1ccccc1 [Example 1]', 580),
  ('C[C@@H](Nc1ncc2cc(-c3ncnc4[nH]ncc34)ccc2n1)c1cccc(F)c1 [Example 3]', 460),
  ('Fc1cccc(CNc2ncc3cc(-c4ncnc5[nH]ncc45)ccc3n2)c1 [Example 10]', 500),
  ('C[C@@H](Nc1ncc2cc(-c3ncnc4[nH]ncc34)ccc2n1)c1ccc(F)cc1 [Example 4]', 680),
  ('C[C@@H](Nc1ncc2cc(-c3ncnc4[nH]ncc34)ccc2n1)c1ccc(F)c(F)c1 [Example 19]', 600),
  ('C[C@@H](Nc1ncc2cc(-c3ncnc4[nH]ncc34)ccc2n1)c1ccccc1F [Example 28]', 420);
